Hey, just so you know, these numbers are from the CheMixHub drug solubility set.

# protocolSummary: xn = mol fraction of the nth substance listed, in the solute-free solvent
# statedConditions: 298.15 K; x2 = 0.7
# key: entry, value: solubility (g/100 g solution)
observable: solubility (g/100 g solution)

>>> assayvalue("CCCCN1CCCCC1C(=O)Nc1c(C)cccc1C.Cl.O (stereo not given) + CCO + O")
3.95
>>> assayvalue("CC1(C)SC2C(NC(=O)C(NC(=O)N3CCNC3=O)c3ccccc3)C(=O)N2C1C(=O)O (stereo not given) + CO + CC(C)O")
0.42
>>> assayvalue("O=c1ccc2ccccc2o1 + CO + O")
20.2
>>> assayvalue("CCOC(=O)C1=CC2(CC)CCCN3CCc4c(n1c1ccccc41)C32 (stereo not given) + CCO + O")
0.661
>>> assayvalue("CN1CCN(C(=O)OC2c3nccnc3C(=O)N2c2ccc(Cl)cn2)CC1 (stereo not given) + C1CCOC1 + O")
3.57
>>> assayvalue("CCCCN1CCCCC1C(=O)Nc1c(C)cccc1C.Cl.O (stereo not given) + CO + O")
8.09
>>> assayvalue("CN1CCN(C(=O)OC2c3nccnc3C(=O)N2c2ccc(Cl)cn2)CC1 (stereo not given) + CCO + O")
0.998
>>> assayvalue("O=c1ccc2ccccc2o1 + CC(C)=O + O")
52.6
>>> assayvalue("CN1CCN(C(=O)OC2c3nccnc3C(=O)N2c2ccc(Cl)cn2)CC1 (stereo not given) + CC(C)=O + O")
1.52
>>> assayvalue("CN1CCN(C(=O)OC2c3nccnc3C(=O)N2c2ccc(Cl)cn2)CC1 (stereo not given) + CC#N + O")
4.09
